- Test system: A-375 (Melanoma)
- assay_method_text: Cytotoxicity, MTT assay, A-375
- Assay type: cell-based
- experimental_context: Homo sapiens, 10 μM, read-out: Cell Growth Inhibition (%)
Measured inhibition at 10 µM, listed per entry.
Express your answer in %, writing the number without its unit.

[
  {
    "compound": "Cc1cc(=O)c2c(O)cc(OC(=O)c3ccccc3C)c(C3CCN(C)CC3O)c2o1 (centres unmarked)",
    "inhibition at 10 µM / %": 42
  },
  {
    "compound": "Cc1cc(=O)c2c(O)cc(OCc3ccccc3)c(C3CCN(C)CC3O)c2o1 (centres unmarked)",
    "inhibition at 10 µM / %": 27.8
  }
]

Quick check: inhibition at 10 µM on A-375 (Melanoma), item Cc1cc(=O)c2c(O)cc(O)c(C3CCN(C)CC3O)c2o1 (centres unmarked) [Compound 1, reference compound] ? 41.2

Missing value: inhibition at 10 µM, A-375 (Melanoma), entry Cc1oc2c(C3CCN(C)CC3O)c(O)cc(O)c2c(=O)c1C(O)c1ccccc1Br (centres unmarked) . Fill in? 22.4

// lookup inhibition at 10 µM | system=A-375 (Melanoma) | key= CN1CCC(c2c(O)cc(O)c3c(=O)cc(/C=C/c4cccc(Cl)c4)oc23)C(O)C1 (centres unmarked) 65.9

====

Entries and their inhibition at 10 µM values follow.
- System: A-375 (Melanoma)
- assay_method_text: Cytotoxicity, MTT assay, A-375
- Type: cell-based
- experimental_context: Homo sapiens, 10 μM, read-out: Cell Growth Inhibition (%)
- Method: Compounds proposed in the present invention were evaluated for their cytotoxic effect against panel of six cancer cell line viz. HL-60 (Leukemia), PC-3 (Prostate), A-375 (Melanoma), MIAPaCa-2 (pancreatic), MCF-7 (Breast) and Caco-2 (Colon) using MTT assay. […] Absorbance was then measured at 570 nm using an absorbance plate reader (Bio-Rad Microplate Reader). Data are expressed as the percentage of viable cells in treated relative to non-treated conditions.
Field: numeric (%). Do not append units.

Can you look up inhibition at 10 µM on A-375 (Melanoma) for CN1CCC(c2c(O)cc(O)c3c(=O)cc(/C=C/c4ccccc4F)oc23)C(O)C1 (stereo not drawn) ? 54.1

For the record Cc1cc(=O)c2c(O)cc(OCc3ccc(Br)cc3)c(C3CCN(C)CC3O)c2o1 (stereo not drawn) , what value of inhibition at 10 µM is listed for A-375 (Melanoma)? 45.5

API: value(readout=inhibition at 10 µM, system=A-375 (Melanoma)) for record Cc1cc(=O)c2c(O)cc(OCc3cccs3)c(C3CCN(C)CC3O)c2o1 (stereo not drawn) 53.8

Request body: readout inhibition at 10 µM, system A-375 (Melanoma), query Cc1oc2c(C3CCN(C)CC3O)c(O)cc(O)c2c(=O)c1C(O)c1cccc(Cl)c1 (stereo not drawn) . Return the value. 34.9

// lookup inhibition at 10 µM | system=A-375 (Melanoma) | key= Cc1cc(=O)c2c(O)cc(OCc3ccco3)c(C3CCN(C)CC3O)c2o1 (stereo not drawn) 36.8

Query the reported inhibition at 10 µM for A-375 (Melanoma); item: Cc1oc2c(C3CCN(C)CC3O)c(O)cc(O)c2c(=O)c1C(O)c1ccc(Cl)cc1 (stereo not drawn) 34.2

Every entry's value here was drawn from patent US9932327B2.
